Tested on: MALME-3M melanoma
assay.details: NCI tumour cell line growth inhibition, 48 h
observable: TGI

Completed entries (count: 5):
INSERT INTO results (molecule, observable, obs_value) VALUES
  ('COc1ccc2cc3[n+](cc2c1O)CCc1cc2c(cc1-3)OCO2', 'TGI', '> 100 µM'),
  ('CCCCCCNC(=O)Nc1ccc2cc3ccc(NC(=O)NCCCCCC)cc3nc2c1', 'TGI', '3.12 µM'),
  ('Oc1ccc(N=Cc2ccc(C=Nc3ccc(O)cc3)cc2)cc1', 'TGI', '34.4 µM'),
  ('CCOC(=O)c1cc2c(c3ccsc13)C1(C)CCC3c4ccc(OC)cc4CCC3C1C2 (centres undefined)', 'TGI', '> 100 µM'),
  ('CCOC(=O)c1cc(NC(=O)N(CCC#N)CCN(C(=O)N[C@@H](Cc2ccccc2)C(=O)N[C@@H](CC(C)C)C(=O)NC)c2ccccc2)ccc1OC', 'TGI', '73.5 µM');

Here are 3 molecules. What values of TGI were reported for them?
1. CO[C@H](C(=O)[C@@H](O)[C@@H](C)O)[C@@H]1Cc2cc3cc(O[C@H]4C[C@@H](O[C@H]5C[C@@H](O)[C@H](O)C(C)O5)[C@H](O)C(C)(O)O4)cc(O)c3c(O)c2C(=O)[C@H]1O[C@H]1C[C@@H](O[C@H]2C[C@@H](O[C@H]3C[C@@H](OC)[C@H](O)C(C)O3)[C@@H](O)C(C)O2)[C@H](O)C(C)O1 (some centres undefined)
2. CNc1nc(SC)nc2c1c(N)nn2C
3. C[C@]12CCC3c4ccc(O)cc4CCC3C1CC[C@@]2(O)C#Cc1ccc(C#C/C=C\C#Cc2ccccc2N)cc1 (some centres undefined)

["14 µM", "> 100 µM", "48.1 µM"]

Fill in TGI for each of the 2 molecules listed.
1. COC(=O)CCCc1c(-c2[nH]c3ccccc3c2CCCC(=O)OC)[nH]c2ccccc12
2. c1cc(-c2ccsc2-c2ccsc2)cs1

1. > 100 µM
2. > 100 µM

I need TGI for every entry listed below, if you could help.
1. CCCCNc1nc(N)nc(Nc2ccc(Br)cc2)c1N=O
2. O=C(OCCN=C1c2ccccc2CCc2ccccc21)c1ccccc1
3. FC(F)(F)c1ccc(-c2cncn2-c2ccccc2)cc1
4. COc1cc(-c2cc(=O)c3c(OC)c(OC)c(OC)c(OC)c3o2)cc(OC)c1OC
5. COc1ccc(/C=C2/N=C(N/N=C\C(O)C(O)C(O)C(O)CO)NC2=O)cc1 (centres undefined)
6. Cc1cccc(C)c1NC(=O)CCC(=O)CC(=O)C(C)C

> 100 µM
> 100 µM
43.1 µM
> 100 µM
> 100 µM
> 100 µM

Parameter requested: TGI. Apply to each item below.
1. C=C(C)C(=O)OC1CC2(C)OC(=CC2=O)C(C)CC2OC(=O)C(=C)C12 (centres undefined)
2. CC(=NC1CCCCC1)c1ccccc1O
3. CNC(=O)C(C)C1C(=O)/C(=C(O)/C=C\C(C)=C\C(C)C2OC3(C)OC(C=CC34CO4)C2C)C(=O)N1C1CCC(O)C(C)O1 (centres undefined)

1. 16.1 µM
2. > 100 µM
3. > 100 µM

----------
Test system: EKVX NSCLC
assay.details: NCI tumour cell line growth inhibition, 48 h
Field: TGI. Provide a value for each of the molecules that follow.
Give bare numbers, in µM.

// each molecule listed below needs its TGI
1. O=Cc1cc2c(s1)C(=O)c1sccc1C2=O
2. CC1CCC2(NC1)OC1CC3C4CCC5CC(OC6OC(CO)C(OC7OC(CO)C(O)C(OC8OCC(O)C(O)C8O)C7OC7OC(CO)C(O)C(O)C7O)C(O)C6O)CCC5(C)C4CCC3(C)C1C2C (stereo not given)
3. Cn1cnc([N+](=O)[O-])c1[Se]c1ncnc2nc[nH]c12

1: 3.18; 2: 2.37; 3: 47.4

----------
Test system: A549 NSCLC
assay.details: NCI tumour cell line growth inhibition, 48 h
observable: TGI

Please report TGI for every entry that follows.
1. CN([O-])c1nc(N(C)[O-])nc(N2CCOCC2)n1.CN([O-])c1nc(N(C)[OH2+])nc(N2CCOCC2)n1.[Fe+3]
2. Cn1cc(C2=C(c3cn(CCSC(=N)N)c4ccccc34)C(=O)NC2=O)c2ccccc21

1. > 100 µM
2. 8.18 µM

----------
System: NCI/ADR-RES ovarian
assay.details: NCI tumour cell line growth inhibition, 48 h
observable: TGI

List the reported TGI of each compound below.
1. CC1CCC2(NC1)OC1CC3C4CCC5CC(OC6OC(CO)C(OC7OC(CO)C(O)C(OC8OCC(O)C(O)C8O)C7OC7OC(CO)C(O)C(O)C7O)C(O)C6O)CCC5(C)C4CCC3(C)C1C2C (centres undefined)
2. CN1CCN(c2ccc3nc(-c4c5cccccc-5[nH]c4=O)[nH]c3c2)CC1
3. Cc1ccc(-c2cc(C(=O)N3N=C(c4ccc(N)cc4)CC3c3ccc(Cl)cc3)c3ccccc3n2)cc1 (centres undefined)
4. O=C(O)C1CCCN1C(=O)c1cc(Cl)ccn1 (centres undefined)

3.93 µM
97.4 µM
> 100 µM
> 100 µM

----------
System: HCC-2998 colon
assay.details: NCI tumour cell line growth inhibition, 48 h; in the data active = GI50 below about 0.43 µM; inactive = the rest
The categories you may choose from are Y for active, N for inactive

Before answering, review these 2 worked examples.
INSERT INTO results (compound, class) VALUES
  ('O=C(O)CCCn1c(SCc2c(Cl)cccc2Cl)nc2ccsc2c1=O', 'N'),
  ('CCOC(=O)C1=C(C)N(c2ccc(OC)cc2)C2(O)C=CC(=O)C3C(=O)N(c4ccccc4)C(=O)C132 (stereo unspecified)', 'N');

GET /call?item= CN([O-])c1nc(N(C)[O-])nc(N2CCOCC2)n1.CN([O-])c1nc(N(C)[OH2+])nc(N2CCOCC2)n1.[Fe+3] returns the recorded outcome of this test.
N

Subsequent entry: CC(=O)OC[C@]1(C)C=C2C(=O)[C@](C)(O)C3(CC3)C(C)=C2[C@H]1OC(=O)N(C)CCN(C)C(=O)OC(C)(C)C
N

What do we get for Cc1nc2cc(-n3c(-c4ccc(F)cc4)nc4ccccc4c3=O)ccc2n1Cc1ccccc1 ?
N

Field entry: COc1ccc(S(=O)(=O)Nc2cc(/C=C\c3cc(OC)c(OC)c(OC)c3)cc(OC)c2OC)cc1
Y

----------
System: EKVX NSCLC
assay.details: NCI tumour cell line growth inhibition, 48 h; in the data active = GI50 below about 0.43 µM; inactive = the rest
# valid calls are active, inactive; nothing else

For CCOC(=O)/C=C/C1=C(c2csc3ccccc23)c2ccccc2CC1 , what call appears in the results of this test?
inactive

Now this one: CC1CN1C1=CC(=O)c2c(c(CO)cn2C)C1=O (stereo not drawn)
inactive

Subsequent entry: CN([O-])c1nc(N(C)[O-])nc(N2CCOCC2)n1.CN([O-])c1nc(N(C)[OH2+])nc(N2CCOCC2)n1.[Fe+3]
inactive

And the next one, CCOC(=O)c1cc2c(c3ccsc13)C1(C)CCC3c4ccc(OC)cc4CCC3C1C2 (stereo not drawn) ?
inactive

Follow-up entry: COc1ccc(/C=N/C2=C(C#N)C(c3ccccc3)c3c(ccc4ccccc34)O2)cc1 (stereo not drawn)
inactive

Request: COc1cccc2c1-c1ccccc1C2=O
inactive

# iterate: O=C(C[Si](CC(=O)c1cccc(C(F)(F)F)c1)CC(=O)c1cccc(C(F)(F)F)c1)c1cccc(C(F)(F)F)c1
inactive

----------
Test system: HOP-62 NSCLC
assay.details: NCI tumour cell line growth inhibition, 48 h
For each of the compounds below, state its TGI.

INSERT INTO results (compound, observable, obs_value) VALUES
  ('Cn1cc(C2=C(c3cn(CCCO)c4ccccc34)C(=O)NC2=O)c2ccccc21', 'TGI', '19.5 µM'),
  ('CCCCCCNC(=O)Nc1ccc2cc3ccc(NC(=O)NCCCCCC)cc3nc2c1', 'TGI', '4.88 µM'),
  ('N#Cc1c(-c2ccccc2)c(C#N)c(=S)n(C2OC(CO)C(O)C(O)C2O)c1N (stereo unspecified)', 'TGI', '> 100 µM');

Kindly give each listed record's TGI.
1. CC(=O)c1c(P(=O)(OC(C)C)OC(C)C)nn(-c2ccc([N+](=O)[O-])cc2)c1C
2. COc1cc(C2c3[nH]c4ccccc4c3[C@@H](Nc3ccc(F)cc3)[C@H]3COC(=O)N23)cc(OC)c1O (stereo partly specified)
3. CNc1nc(SC)nc2c1c(N)nn2C
4. NC(=O)C1(c2ccccc2)Nc2ccccc2S1 (stereo unspecified)
5. N#CC1(C#N)C2=C(CCCC2)NC(c2ccc(Br)cc2)C1(C#N)C#N (stereo unspecified)
6. CN(C(=O)c1ccccc1)C1CCCC(=O)CC1 (stereo unspecified)
7. CC(=O)c1cc2c(c(O)c1C)C(=O)C(=O)c1c(O)cccc1-2
8. O=C(OCCN=C1c2ccccc2CCc2ccccc21)c1ccccc1

1. > 100 µM
2. 3.42 µM
3. > 100 µM
4. > 100 µM
5. 35.7 µM
6. > 100 µM
7. 0.365 µM
8. > 100 µM

// each listed compound needs a value for TGI
1. CCOC(=O)C1=C(C)N(c2ccc(OC)cc2)C2(O)C=CC(=O)C3C(=O)N(c4ccccc4)C(=O)C132 (stereo unspecified)
2. CCC1=C(c2ccc(OC)cc2)CC[C@@]2(CCNC2=O)[C@@H]1C
3. c1ccc2cc(CN3CCC(C4CCN(Cc5ccc6ccccc6c5)CC4)CC3)ccc2c1
4. CC1(C)C(OC(=O)c2ccccc2)C[C@]23CCC[C@](C)(C[C@@H](O)C12)C3 (stereo partly specified)
5. C/C=N\n1c(C)n[nH]c1=O
6. C=CCC12CC(=O)CCC1CC(=O)C2 (stereo unspecified)

1. 10.3 µM
2. > 100 µM
3. 7.84 µM
4. 63.4 µM
5. > 100 µM
6. > 100 µM

Could you tell me TGI for each of these compounds? They are listed below.
1. COc1ccc(NC(=O)C2C(=O)N(c3ccc(OC)cc3)C(=O)/C2=N\N)cc1 (stereo unspecified)
2. Nc1nc2c(ncn2CC2CCC(CO)C2)c(=O)[nH]1 (stereo unspecified)
3. CCN(CC)c1ccc(/C=C2\SC(=O)C(Nc3nnc(-c4cccnc4SCc4ccccc4)o3)C2=O)cc1 (stereo unspecified)

1. > 100 µM
2. > 100 µM
3. 24.9 µM

Just for reference, PubChem BioAssay (NCI) is where these values come from.
